Target Desc: CYP2C19 (Homo sapiens, UniProt P33261)
Construct: 0.1 mg/mL protein human liver microsomes (BD Gentest); tissue BD Gentest; host or cells: human liver microsomes
Sequence (P33261 whole entry): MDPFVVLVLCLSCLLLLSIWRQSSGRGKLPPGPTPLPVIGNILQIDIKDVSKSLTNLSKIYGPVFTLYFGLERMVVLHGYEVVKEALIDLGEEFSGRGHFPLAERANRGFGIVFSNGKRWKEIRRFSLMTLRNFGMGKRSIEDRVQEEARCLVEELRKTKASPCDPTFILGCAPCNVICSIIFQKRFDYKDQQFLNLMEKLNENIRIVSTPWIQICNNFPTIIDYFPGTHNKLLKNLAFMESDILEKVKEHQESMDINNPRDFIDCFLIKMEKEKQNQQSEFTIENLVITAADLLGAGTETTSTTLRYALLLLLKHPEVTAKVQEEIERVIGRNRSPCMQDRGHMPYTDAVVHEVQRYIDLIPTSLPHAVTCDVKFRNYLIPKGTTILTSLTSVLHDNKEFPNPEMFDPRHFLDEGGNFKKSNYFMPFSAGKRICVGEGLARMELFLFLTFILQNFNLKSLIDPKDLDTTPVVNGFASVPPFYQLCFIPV
Procedure Details: Cocktail assay for CYPs in human liver microsomes: CYP2C19 (mephenytoin 4′-hydroxylation)
Type: biochemical
Condition Info: human liver microsomes 0.1 mg/mL, 30 μM mephenytoin, 10 min at 37° C., 6 concentrations up to 10 μM; read-out: IC50 (nM) CYP2C19
Reported IC50 values for the following compounds.
Property: IC50

Compound	Target Desc	Result
C[C@H](c1ccc(F)cc1)n1cncc1CN1CCC(C#N)(c2ccccn2)CC1	CYP2C19 (Homo sapiens, UniProt P33261)	6400 nM
C[C@H](c1ccc(F)cc1)n1cncc1CN1CCN(Cc2cnc(N3CCN(C)CC3)s2)C(=O)C1	CYP2C19 (Homo sapiens, UniProt P33261)	> 10000 nM
C[C@H](c1ccc(F)cc1)n1cncc1CN1CCN(Cc2cnc(N3CCOCC3)s2)C(=O)C1	CYP2C19 (Homo sapiens, UniProt P33261)	> 10000 nM
C[C@H](c1ccc(F)cc1)n1cncc1CN1CCN(Cc2ccccc2Cn2cncn2)C(=O)C1	CYP2C19 (Homo sapiens, UniProt P33261)	1140 nM
C[C@H](c1ccc(F)cc1)n1cncc1CN1CCN(C(=O)C2CCOCC2)C(c2ccccc2)C1 (single isomer, unassigned) [Compound 52b]	CYP2C19 (Homo sapiens, UniProt P33261)	3670 nM
C[C@H](c1ccc(F)cc1)n1cncc1CN1CCC(C#N)(C2CCCC2)CC1	CYP2C19 (Homo sapiens, UniProt P33261)	3740 nM
CCC1(C#N)CCN(Cc2cncn2[C@H](C)c2ccc(F)cc2)CC1	CYP2C19 (Homo sapiens, UniProt P33261)	6220 nM
C[C@H](c1ccc(C#N)cc1)n1cncc1CN1CCN(c2ccccc2)C(C(=O)N2CCCCC2)C1 (single isomer, unassigned) [Compound 45b]	CYP2C19 (Homo sapiens, UniProt P33261)	5180 nM
CC1(C#N)CCN(Cc2cncn2Cc2nc3ccccc3s2)CC1	CYP2C19 (Homo sapiens, UniProt P33261)	2680 nM
COc1ccc(-c2nc(CN3CCN(Cc4cncn4[C@H](C)c4ccc(F)cc4)CC3=O)no2)cc1	CYP2C19 (Homo sapiens, UniProt P33261)	4520 nM
CC(C)C1(C#N)CCN(Cc2cncn2[C@H](C)c2ccc(F)cc2)CC1	CYP2C19 (Homo sapiens, UniProt P33261)	> 10000 nM

====

Target Desc: CYP2C19 (Homo sapiens, UniProt P33261)
Construct: 0.1 mg/mL protein human liver microsomes (BD Gentest); tissue BD Gentest; host or cells: human liver microsomes
Procedure Details: Cocktail assay for CYPs in human liver microsomes: CYP2C19 (mephenytoin 4′-hydroxylation)
Assay type: biochemical
Condition Info: human liver microsomes 0.1 mg/mL, 30 μM mephenytoin, 10 min at 37° C., 6 concentrations up to 10 μM; read-out: IC50 (nM) CYP2C19
Reported IC50 values for the following compounds.
Property: IC50 (nM)

Compound	Property	Unit Label	Qualifier	Numeric Readout
CCS(=O)(=O)c1cnc(N2CCN(Cc3cncn3[C@H](C)Cc3ccc(F)cc3)CC2)s1 [Compound 40]	IC50	nM	>	10000
C[C@H](c1ccc(F)cc1)n1cncc1CN1CCN(Cc2cnc(N(C)C)s2)C(=O)C1 [Compound 66]	IC50	nM	>	10000
C[C@H](c1ccc(C#N)cc1)n1cncc1CN1CCC(c2nc3ccccc3o2)CC1 [Compound 21]	IC50	nM	=	8700
CC(Cn1cncc1CN1CCN(c2nc3ccccc3o2)CC1)C(F)(F)F (stereo not shown) [Compound 36]	IC50	nM	=	4260
